- studyTarget: ATX (autotaxin) (Homo sapiens, UniProt Q13822)
- Construct: purchased Cayman 10803
- testDescription: Autotaxin Inhibition Screening Assay (choline release from LPC, LPC-CR)
- Type: biochemical
- assayConditions: 50 μM compound
Measured inhibition at 50 µM values are reported for all entries that follow.

>>> readoutvalue("O=C(/C=C/c1ccc2c(c1)CCC2NC(=O)OCc1cc(C(F)(F)F)cc(C(F)(F)F)c1)NO (stereo not drawn)")
"< 50%"
>>> readoutvalue("Nc1cc(F)ccc1NC(=O)CCCCC(=O)Nc1ccc2c(c1)CC/C(=C\\c1cc(C(F)(F)F)cc(C(F)(F)F)c1)C2=O")
"50 to 80%"
>>> readoutvalue("O=C(CCCCCC(=O)Nc1ccc2c(c1)CC/C(=C\\c1cc(C(F)(F)F)cc(C(F)(F)F)c1)C2=O)NO")
"> 80%"
>>> readoutvalue("O=C(/C=C/c1ccc2c(c1)CCC2NCCC(=O)Nc1cc(C(F)(F)F)cc(C(F)(F)F)c1)NO (stereo not drawn)")
"< 50%"
>>> readoutvalue("CCN(CC)c1ccc(C(=O)NC2CCc3cc(/C=C/C(=O)NCCCCCC(=O)NO)ccc32)cc1 (stereo not drawn)")
"50 to 80%"

Would you kindly look at the next entry?
Task: Record request: inhibition at 50 µM value, item Nc1cc(F)ccc1NC(=O)CCCCCCC(=O)Nc1ccc2c(c1)CC/C(=C\c1cc(C(F)(F)F)cc(C(F)(F)F)c1)C2=O
Result: 50 to 80%
